B1: RHOBTB3 (parent)
chain: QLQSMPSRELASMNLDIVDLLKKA

variants of: B1; assay: protein stability index of a GFP-peptide fusion (GPS, HEK-293T) (PSI 1-6); higher = more stable; settings: c terminus: a fixed tail appended;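 further: lentivirally expressed fusions sorted by FACS into six bins by GFP to DsRed ratio, PSI derived from sequencing read proportions per bin multiplied by bin number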
assay.readout: protein stability index

> print(dat)
    variant.label  experimental.result
 1           L21A                 3.47
 2           A11E                 3.73
 3           L20K                 4.33
 4           L15Q                 3.72
 5           L10E                 3.97
 6            R8E                 4.28
 7           A24Q                 3.49
 8           L10N                 3.33
 9           A24G                 3.92
10           D16I                 2.67
11            E9V                 3.04
12            Q3Y                 2.75
13            Q3M                 3.35
14            S7Q                 3.77
15           L20G                 4.62
16            M5E                 3.54
17           D16C                 3.25
